Each recorded value in this set is attributed to the RNAGym collection of RNA variant scans (doi:10.7554/elife.80360).

B1: Hairpin Ribozyme (parent)
chain: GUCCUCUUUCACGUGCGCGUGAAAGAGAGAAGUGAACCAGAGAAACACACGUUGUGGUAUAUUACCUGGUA

variants of: B1; test: self-cleavage, relative activity (ratio to wild type); higher = more cleavage; co-transcriptional
Outcome measure: self-cleavage
Field format: numeric only.

A43U U70C; 0.159

Ask: Check the records and state self-cleavage for C4G G27U
Reply: 0.31

Ask: Check the records and state self-cleavage for A24U G29A
Reply: 0.146

Ask: Check the records and state self-cleavage for G40A A64C
Reply: 0.16

Ask: Check the records and state self-cleavage for U9G U14A
Reply: 0.612

Ask: Check the records and state self-cleavage for U5G U14G
Reply: 0.152

Ask: Check the records and state self-cleavage for U52A C65G
Reply: 0.258

Ask: Check the records and state self-cleavage for U7C C12G
Reply: 0.758

Ask: Check the records and state self-cleavage for C6A U9A
Reply: 0.417

Ask: Check the records and state self-cleavage for A47C U70A
Reply: 0.264

Ask: Check the records and state self-cleavage for G19U A22U
Reply: 0.648
